// data source = PubChem BioAssay AID1963854

Tested on: 186277-243-T-J2-PDC complex spheroid viability
Assay: Anticancer human tumor 186277-243-T-J2-PDC patient-derived colon adenocarcinoma cell line growth inhibition [POLQ]
Conditions: second compound 0.1 µM; first compound 0.1 µM; active compounds read low
Quick reference for viability, T/C among some compounds
Write the value in % as a bare number.

Take a look at these entries with their results.
>>> experimentalresult("O=C(Nc1ccc(O)c(NS(=O)(=O)c2ccc(F)cc2)c1)c1ccc(-c2ccccc2)cc1 + Nc1ccc(C#CCN(C(=O)Cc2ncc(C(F)(F)F)cc2C(F)(F)F)c2ccc(F)cc2)nn1")
88.8
>>> experimentalresult("C=CCn1c(=O)c2cnc(Nc3ccc(N4CCN(C)CC4)cc3)nc2n1-c1cccc(C(C)(C)O)n1 + Cc1cccc(N(C)C(=O)C2C(O)CCN2c2nc(C)cc(C(F)(F)F)c2C#N)c1")
106
>>> experimentalresult("O=c1[nH]cc(F)c(=O)[nH]1 + Nc1ccc(C#CCN(C(=O)Cc2ncc(C(F)(F)F)cc2C(F)(F)F)c2ccc(F)cc2)nn1")
112
>>> experimentalresult("CC1COCCN1c1cc(C2(S(C)(=N)=O)CC2)nc(-c2ccnc3[nH]ccc23)n1 (stereo not given) + COC1C(OC(N)=O)C(O)C(Oc2ccc3c(O)c(NC(=O)c4ccc(O)c(CC=C(C)C)c4)c(=O)oc3c2C)OC1(C)C")
107

Requested read-out viability, T/C, target or system 186277-243-T-J2-PDC complex spheroid viability, entry COc1cccc2c1C(=O)c1c(O)c3c(c(O)c1C2=O)CC(O)(C(=O)CO)CC3OC1CC(N)C(O)C(C)O1 (stereo not given) + Nc1ccc(C#CCN(C(=O)Cc2ncc(C(F)(F)F)cc2C(F)(F)F)c2ccc(F)cc2)nn1
107

---

Test system: 186277-243-T-J2-PDC complex spheroid viability
Experiment: Anticancer human tumor 186277-243-T-J2-PDC cell line growth inhibition [POLQ]; active = viability on the fitted dose curve at most 10% of control; inactive = the rest;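 further: spheroids exposed to compounds for seven days; 100% = DMSO vehicle control viability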
Details: second compound 0.316 µM; first compound 3.16 µM
Valid outcomes are listed here; reply with one: active, inactive

Check the results log: what was the call for COc1cc(C2c3cc4c(cc3C(OC3OC5COC(C)OC5C(O)C3O)C3COC(=O)C23)OCO4)cc(OC)c1O (stereo not drawn) + COC1C(OC(N)=O)C(O)C(Oc2ccc3c(O)c(NC(=O)c4ccc(O)c(CC=C(C)C)c4)c(=O)oc3c2C)OC1(C)C ?
inactive

Item: CC1COCCN1c1cc(C2(S(C)(=N)=O)CC2)nc(-c2ccnc3[nH]ccc23)n1 (stereo not drawn) + Cc1cccc(N(C)C(=O)C2C(O)CCN2c2nc(C)cc(C(F)(F)F)c2C#N)c1
active

Item: C#Cc1c(F)ccc2cc(O)cc(-c3ncc4c(N5CC6CCC(C5)N6)nc(OCC56CCCN5CC(F)C6)nc4c3F)c12 (stereo not drawn) + COC1C(OC(N)=O)C(O)C(Oc2ccc3c(O)c(NC(=O)c4ccc(O)c(CC=C(C)C)c4)c(=O)oc3c2C)OC1(C)C
active

---

System: 186277-243-T-J2-PDC complex spheroid viability
Assay: Anticancer human tumor 186277-243-T-J2-PDC cell line growth inhibition [POLQ];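 further: spheroids exposed to compounds for seven days; 100% = DMSO vehicle control viability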
Conditions: second compound 0.316 µM; first compound 3.16 µM; active compounds read low
quantityName: viability, T/C (%)
Write the value in % as a bare number.

Take a look at these entries with their results.
>>> experimentalresult("COc1ccc([C@@H](O)c2cc(-c3ncnc4cc(N5CCOCC5)ccc34)c(F)cc2Cl)nn1 + COC1C(OC(N)=O)C(O)C(Oc2ccc3c(O)c(NC(=O)c4ccc(O)c(CC=C(C)C)c4)c(=O)oc3c2C)OC1(C)C")
71.1
>>> experimentalresult("CC(C)n1c(=O)n(C)c2cnc3cc(F)c(-c4ccc(OCCCN5CCCCC5)nc4)cc3c21 + Cc1cccc(N(C)C(=O)C2C(O)CCN2c2nc(C)cc(C(F)(F)F)c2C#N)c1")
119
>>> experimentalresult("COc1cc(C2c3cc4c(cc3C(OC3OC5COC(C)OC5C(O)C3O)C3COC(=O)C23)OCO4)cc(OC)c1O (stereo not given) + Nc1ccc(C#CCN(C(=O)Cc2ncc(C(F)(F)F)cc2C(F)(F)F)c2ccc(F)cc2)nn1")
55.9
>>> experimentalresult("CCc1cc2c(N3CCc4c(cc(Cn5ccnc5)cc4-c4cn(C)nc4C(F)(F)F)C3=O)cc(C)nc2c(OC)n1 + Nc1ccc(C#CCN(C(=O)Cc2ncc(C(F)(F)F)cc2C(F)(F)F)c2ccc(F)cc2)nn1")
89.7
>>> experimentalresult("Nc1ccn(C2OC(CO)C(O)C2(F)F)c(=O)n1 (stereo not given) + COC1C(OC(N)=O)C(O)C(Oc2ccc3c(O)c(NC(=O)c4ccc(O)c(CC=C(C)C)c4)c(=O)oc3c2C)OC1(C)C")
6.62

Given COc1cc2cc(C(=O)CCC(=O)O)sc2cc1OC + COC1C(OC(N)=O)C(O)C(Oc2ccc3c(O)c(NC(=O)c4ccc(O)c(CC=C(C)C)c4)c(=O)oc3c2C)OC1(C)C , state its recorded viability, T/C.
98.1

Item: COc1cccc2c1C(=O)c1c(O)c3c(c(O)c1C2=O)CC(O)(C(=O)CO)CC3OC1CC(N)C(O)C(C)O1 (stereo not given) + Nc1ccc(C#CCN(C(=O)Cc2ncc(C(F)(F)F)cc2C(F)(F)F)c2ccc(F)cc2)nn1
1.33

Item: CC(C)n1c(=O)n(C)c2cnc3cc(F)c(-c4ccc(OCCCN5CCCCC5)nc4)cc3c21 + Nc1ccc(C#CCN(C(=O)Cc2ncc(C(F)(F)F)cc2C(F)(F)F)c2ccc(F)cc2)nn1
114

Item: CC1COCCN1c1cc(C2(O)CC3CCC(C2)O3)c2cnn(-c3ccn[nH]3)c2n1 (stereo not given) + COC1C(OC(N)=O)C(O)C(Oc2ccc3c(O)c(NC(=O)c4ccc(O)c(CC=C(C)C)c4)c(=O)oc3c2C)OC1(C)C
3.45

Item: CCc1cc2c(N3CCc4c(cc(Cn5ccnc5)cc4-c4cn(C)nc4C(F)(F)F)C3=O)ccnc2c(OC)n1 + COC1C(OC(N)=O)C(O)C(Oc2ccc3c(O)c(NC(=O)c4ccc(O)c(CC=C(C)C)c4)c(=O)oc3c2C)OC1(C)C
89.7

Item: CCc1cc2c(N3CCc4c(cc(Cn5ccnc5)cc4-c4cn(C)nc4C(F)(F)F)C3=O)cc(C)nc2c(OC)n1 + Cc1cccc(N(C)C(=O)C2C(O)CCN2c2nc(C)cc(C(F)(F)F)c2C#N)c1
116

Item: CC1COCCN1c1cc(-c2ccnn2C)c2ccnc(-c3ccn[nH]3)c2n1 (stereo not given) + Cc1cccc(N(C)C(=O)C2C(O)CCN2c2nc(C)cc(C(F)(F)F)c2C#N)c1
3.63

Item: C#Cc1c(F)ccc2cc(O)cc(-c3ncc4c(N5CC6CCC(C5)N6)nc(OCC56CCCN5CC(F)C6)nc4c3F)c12 (stereo not given) + Cc1cccc(N(C)C(=O)C2C(O)CCN2c2nc(C)cc(C(F)(F)F)c2C#N)c1
6.35

Item: O=C(Nc1ccc(O)c(NS(=O)(=O)c2ccc(F)cc2)c1)c1ccc(-c2ccccc2)cc1 + Nc1ccc(C#CCN(C(=O)Cc2ncc(C(F)(F)F)cc2C(F)(F)F)c2ccc(F)cc2)nn1
101

Item: COc1cccc2c1C(=O)c1c(O)c3c(c(O)c1C2=O)CC(O)(C(=O)CO)CC3OC1CC(N)C(O)C(C)O1 (stereo not given) + COC1C(OC(N)=O)C(O)C(Oc2ccc3c(O)c(NC(=O)c4ccc(O)c(CC=C(C)C)c4)c(=O)oc3c2C)OC1(C)C
0.13

Item: CNCc1ccc(-c2[nH]c3cc(F)cc4c3c2CCNC4=O)cc1 + Cc1cccc(N(C)C(=O)C2C(O)CCN2c2nc(C)cc(C(F)(F)F)c2C#N)c1
93.8

Item: COc1ccc([C@@H](O)c2cc(-c3ncnc4cc(N5CCOCC5)ccc34)c(F)cc2Cl)nn1 + Nc1ccc(C#CCN(C(=O)Cc2ncc(C(F)(F)F)cc2C(F)(F)F)c2ccc(F)cc2)nn1
101

Item: C=CC(=O)N1CCN(c2nc(=O)n(-c3c(C)ccnc3C(C)C)c3nc(-c4c(O)cccc4F)c(F)cc23)C(C)C1 (stereo not given) + COC1C(OC(N)=O)C(O)C(Oc2ccc3c(O)c(NC(=O)c4ccc(O)c(CC=C(C)C)c4)c(=O)oc3c2C)OC1(C)C
110

Item: COc1cc2cc(C(=O)CCC(=O)O)sc2cc1OC + Cc1cccc(N(C)C(=O)C2C(O)CCN2c2nc(C)cc(C(F)(F)F)c2C#N)c1
93.5

Item: Nc1ccn(C2OC(CO)C(O)C2(F)F)c(=O)n1 (stereo not given) + Cc1cccc(N(C)C(=O)C2C(O)CCN2c2nc(C)cc(C(F)(F)F)c2C#N)c1
7.97
